The reported numbers originate from ChEMBL document CHEMBL3232883.

# Organism: Homo sapiens
# assay-name: Selectivity ratio of RBA for human full length ERbeta to RBA for human full-length ERalpha
measured-endpoint: Selectivity ratio

Query: Give the value of Selectivity ratio reported for the following: Cc1ccccc1N=C(c1ccc(O)cc1)c1ccc(O)cc1
Result: 2.8

Query: Give the value of Selectivity ratio reported for the following: Cc1ccc(N=C(c2ccc(O)cc2)c2ccc(O)cc2)cc1
Result: 2

Query: Give the value of Selectivity ratio reported for the following: Oc1ccc(/C(=N\c2ccc(Cl)cc2)c2ccc(O)cc2O)cc1
Result: 2.5

Query: Give the value of Selectivity ratio reported for the following: Oc1ccc(/C(=N\c2cccc(Cl)c2)c2ccc(O)cc2O)cc1
Result: 1.6

Query: Give the value of Selectivity ratio reported for the following: Oc1ccc(N=C(c2ccc(O)cc2)c2ccc(O)cc2)cc1
Result: 0.5

Query: Give the value of Selectivity ratio reported for the following: Oc1ccc(C(=Nc2cccc(Cl)c2)c2ccc(O)cc2)cc1
Result: 2.5
